binders and their reported pKi
# system under test: T1, Human EphA2 (Ecto), C-terminal polyHis (Human, UniProt P29317 24-537)
# T1 construct: extracellular domain; also called EPH receptor A2; ephrin type-A receptor 2
# T1 sequence (P29317 24-537): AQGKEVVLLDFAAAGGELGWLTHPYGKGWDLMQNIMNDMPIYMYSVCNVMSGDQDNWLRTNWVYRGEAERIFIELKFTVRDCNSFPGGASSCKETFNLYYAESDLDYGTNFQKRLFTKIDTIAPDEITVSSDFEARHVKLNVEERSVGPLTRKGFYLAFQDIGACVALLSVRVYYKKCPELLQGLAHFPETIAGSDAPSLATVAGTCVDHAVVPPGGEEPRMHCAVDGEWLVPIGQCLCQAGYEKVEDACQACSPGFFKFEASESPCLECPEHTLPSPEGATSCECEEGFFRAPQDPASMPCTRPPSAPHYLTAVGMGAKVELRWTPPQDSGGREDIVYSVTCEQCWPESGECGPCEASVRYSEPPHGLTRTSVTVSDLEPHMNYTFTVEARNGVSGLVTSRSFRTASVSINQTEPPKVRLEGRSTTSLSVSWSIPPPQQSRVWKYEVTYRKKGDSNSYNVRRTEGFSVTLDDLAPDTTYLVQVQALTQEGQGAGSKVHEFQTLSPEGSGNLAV
# protocol summary: fluorescence polarisation competition; competitor fluorescent Compound 18
pKi: −log10 of the molar value. Starred links: 1 amine or outer side, 2 acyl side, 3 side chain; linkers in the order of their positions; H or OH if unused. Positions of bridges follow the written chain, without caps; N, C: chain ends. Non-standard residues stand in square brackets, D forms with d. No end group written: not given here. 1Nal = N[C@@H](Cc1cccc2ccccc12)C(=O)O; TBMB = c1c(C[*:1])cc(C[*:3])cc1C[*:2]; hArg = N=C(N)NCCCC[C@H](N)C(=O)O; Tle = CC(C)(C)[C@H](N)C(=O)O; Aib = CC(C)(N)C(=O)O; Sar = CNCC(=O)O
parameter measured: pKi

- binder: "[Sar][Sar]ACP[1Nal]GPFWCPV[dA]RPGC (linker 4-11-18 via TBMB, also called Sar2-ACP(1Nal)GPFWCPV(D-Ala)RPGC) [Bicycle Compound Number 115 (TBMB scaffold)]"
  obs value: 7.90
- binder: "[Sar][Sar]ACPWGPF[1Nal]CPV[dA]RPGC (linker 4-11-18 via TBMB, also called Sar2-ACPWGPF(1Nal)CPV(D-Ala)RPGC) [Bicycle Compound Number 117 (TBMB scaffold)]"
  obs value: 7.28
- binder: "[Sar][Sar]ACP[1Nal]G[Aib]FWCPVNRP[dA]C (linker 4-11-18 via TBMB) [Bicycle Compound Number 128 (TBMB scaffold)]"
  obs value: 7.82
- binder: "[Sar][Sar]ACP[1Nal]GPFWCP[Tle]N[hArg]PGC (linker 4-11-18 via TBMB, also called Compound 130; Sar2-ACP(1Nal)GPFWCP(tBuGly)N(HArg)PGC) [Bicycle Compound Number 130 (TBMB scaffold)]"
  obs value: 9.54
- binder: "[Sar][Sar]ACPWGPFWCPVN[hArg]PGC (linker 4-11-18 via TBMB) [Bicycle Compound Number 103 (TBMB scaffold)]"
  obs value: 6.90
